target: T1, recombinant human ErbB2/Fc chimera (human, UniProt P04626 23-652); test: ELISA, coated ErbB2/Fc
T1 construct: bought from R&D Systems; also called rhErbB2-Fc; rhErb2-Fc; Fc part of the bought chimera not given; not described

{"columns": ["binder", "binding result"],
 "data": [
  ["13C9 (VHH, C-term myc-His6 tag) VHH: EVQLVESGGGLVQAGGSLRLSCVASGIPSIHAMAWYRQAPGKQRDWGATTYSRGGTTYNDSAKGRFTISRDNAKKTVYLQMNSLKPEDTAVYYCRDVNRDYWGQGTQVTVSS", "binds"],
  ["11A71/1-125 (VHH, C-term myc-His6 tag) VHH: EVQLVESGGGLVQPGGSLRLSCAASRSIRSVSVMGWYRLAPGNQRELVATITADGITNYADSVKGRFTVSRDNGRNTVYLQMNSLKPEDTAVYYCNVDRLLYYSSGYYQTSVDVWGQGTQVTVSS", "binds"]
]}
